System: AMPK-alpha1;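 also: KINOMEscan kinase panel screen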
Construct: gene PRKAA1
measurement_setup: concentration: 1 μM, replicates: in singlicate; n = 1
Answer each item with its documented %Inh.
Give bare numbers, in %.

Look over these answered cases.
Cc1ccc(NC(=O)c2ccc(Cl)c(Cl)c2)cc1-c1ccc(C(=O)Nc2ccncc2)cc1 [GSK1398460]    21
CC(=O)Nc1cn2nc(Oc3cccc(NC(=O)c4cccc(C(F)(F)F)c4)c3)ccc2n1    0
Cc1ccc(NC(=O)c2ccnc(N3CCCCC3)c2)cc1-c1ccc(C(=O)NCC2CC2)cc1 [GW775610]    19

Exercise: Look up %Inh with AMPK-alpha1 for this compound: Nc1ncc(-c2ccc3nccc(-c4ccncc4)c3c2)cc1S(=O)(=O)N1CCCCC1 [GSK1693850]
Solution: 0
